- ASSAYED TARGET: T1, human Ror2 (human, UniProt Q01974 34-403, limits assumed)
- T1 construct: also called hROR2; receptor tyrosine kinase-like orphan receptor 2
- T1 sequence (Q01974 34-403 limits assumed): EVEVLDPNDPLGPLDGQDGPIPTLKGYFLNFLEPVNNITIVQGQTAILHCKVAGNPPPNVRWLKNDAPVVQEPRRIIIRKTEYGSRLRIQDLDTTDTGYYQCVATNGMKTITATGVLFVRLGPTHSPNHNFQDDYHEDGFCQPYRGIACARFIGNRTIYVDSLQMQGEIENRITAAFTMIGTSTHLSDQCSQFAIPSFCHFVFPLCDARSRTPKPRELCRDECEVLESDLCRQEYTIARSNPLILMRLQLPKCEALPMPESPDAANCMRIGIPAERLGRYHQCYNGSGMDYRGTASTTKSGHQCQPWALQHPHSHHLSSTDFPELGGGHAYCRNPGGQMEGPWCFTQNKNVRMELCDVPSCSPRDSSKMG
- TEST NAME: ELISA, human Ror2; ratio of signal at pH 6.0 to pH 7.4

BINDER	ratio, pH 6.0/7.4
LC-Y031D (antibody, V domains shown) VH: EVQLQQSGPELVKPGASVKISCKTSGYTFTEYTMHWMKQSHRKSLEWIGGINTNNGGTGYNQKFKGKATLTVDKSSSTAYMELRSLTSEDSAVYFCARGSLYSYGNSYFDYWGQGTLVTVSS VL: QIVLTQSPAIMSASPGEKVTITCSATSSVSDMHWFQQKPGTSPKLWIYGTSNLASGVPARFSGSGSGTSYSLTISRMEAEDAATYYCQQRSSYPFTFGQGTKVEIK	2.25
LC-Q089E (antibody, V domains shown) VH: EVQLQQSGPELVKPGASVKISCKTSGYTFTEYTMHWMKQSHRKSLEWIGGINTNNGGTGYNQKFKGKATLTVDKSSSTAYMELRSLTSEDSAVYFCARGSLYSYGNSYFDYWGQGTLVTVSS VL: QIVLTQSPAIMSASPGEKVTITCSATSSVSYMHWFQQKPGTSPKLWIYGTSNLASGVPARFSGSGSGTSYSLTISRMEAEDAATYYCQERSSYPFTFGQGTKVEIK	1.74
LC-F097E (antibody, V domains shown) VH: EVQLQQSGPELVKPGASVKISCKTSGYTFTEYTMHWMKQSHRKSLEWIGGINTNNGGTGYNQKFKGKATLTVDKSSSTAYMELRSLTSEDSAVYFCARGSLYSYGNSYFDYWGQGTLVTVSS VL: QIVLTQSPAIMSASPGEKVTITCSATSSVSYMHWFQQKPGTSPKLWIYGTSNLASGVPARFSGSGSGTSYSLTISRMEAEDAATYYCQQRSSYPFTEGQGTKVEIK	2.28
LC-T096D (antibody, V domains shown) VH: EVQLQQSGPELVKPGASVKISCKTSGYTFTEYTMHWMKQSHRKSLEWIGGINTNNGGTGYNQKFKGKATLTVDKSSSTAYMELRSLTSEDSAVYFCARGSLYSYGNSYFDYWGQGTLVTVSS VL: QIVLTQSPAIMSASPGEKVTITCSATSSVSYMHWFQQKPGTSPKLWIYGTSNLASGVPARFSGSGSGTSYSLTISRMEAEDAATYYCQQRSSYPFDFGQGTKVEIK	1.59
LC-G049P (antibody, V domains shown) VH: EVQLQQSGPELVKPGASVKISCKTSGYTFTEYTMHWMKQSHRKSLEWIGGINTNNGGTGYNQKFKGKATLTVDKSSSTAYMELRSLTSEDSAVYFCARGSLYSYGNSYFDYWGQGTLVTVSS VL: QIVLTQSPAIMSASPGEKVTITCSATSSVSYMHWFQQKPGTSPKLWIYPTSNLASGVPARFSGSGSGTSYSLTISRMEAEDAATYYCQQRSSYPFTFGQGTKVEIK	2.46
